Each entry below lists one item and its recorded Ki value.
Biological target: human VMAT2 (Homo sapiens (Human))
Sequence (Q05940 whole entry): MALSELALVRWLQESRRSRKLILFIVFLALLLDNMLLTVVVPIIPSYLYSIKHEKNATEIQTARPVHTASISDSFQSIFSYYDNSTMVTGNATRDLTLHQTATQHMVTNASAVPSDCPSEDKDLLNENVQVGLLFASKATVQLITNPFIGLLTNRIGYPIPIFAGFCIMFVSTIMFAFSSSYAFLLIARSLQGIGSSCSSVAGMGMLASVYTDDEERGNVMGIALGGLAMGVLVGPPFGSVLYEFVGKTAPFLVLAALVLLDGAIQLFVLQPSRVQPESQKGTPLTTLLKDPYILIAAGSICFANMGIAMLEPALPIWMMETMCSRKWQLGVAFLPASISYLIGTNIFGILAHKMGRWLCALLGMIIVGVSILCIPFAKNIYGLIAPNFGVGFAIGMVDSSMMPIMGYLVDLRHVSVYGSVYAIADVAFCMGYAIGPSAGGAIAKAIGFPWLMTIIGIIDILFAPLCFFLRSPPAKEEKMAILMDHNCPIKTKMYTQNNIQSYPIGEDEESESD
Assay: VMAT2 radioligand binding, 3H-dihydrotetrabenazine competition on human platelet homogenate
Conditions: 10 nM 3H-dihydrotetrabenazine, human platelet homogenate, 25° C., 90 minutes; read-out: VMAT2 Ki

| COMPOUND | TARGET ENTITY | Ki, nM |
| --- | --- | --- |
| COc1cc2c(cc1OCC(F)F)CCN1C[C@H](CC(C)(C)C)[C@@H](O)C[C@@H]21 [Compound 4-6] | human VMAT2 (Homo sapiens (Human)) | 860 |
| COc1cc2c(cc1OCC1(F)COC1)CCN1C[C@@H](CC(C)(C)C)[C@H](O)C[C@H]21 [Compound 4-19] | human VMAT2 (Homo sapiens (Human)) | 8.1 |
| COc1cc2c(cc1OCC(F)F)CCN1C[C@@H](CC(C)(C)C)[C@H](O)C[C@H]21 [Compound 4-13] | human VMAT2 (Homo sapiens (Human)) | 2.2 |
| COc1cc2c(cc1OCC1CC1(F)F)CCN1C[C@@H](CC(C)(C)C)[C@H](O)C[C@H]21 (stereo partly shown) [Compound 4-121] | human VMAT2 (Homo sapiens (Human)) | 0.82 |

###

# HLM Predicted Systemic Clearance listing for each entry below
Experiment: Stability of compounds in human liver microsomes
Type: in vitro ADME
Details: scaled from HLM half-life (Obach method), human

| MOLECULE | COMPARISON OPERATOR | HLM Predicted Systemic Clearance / mL/min/kg |
| --- | --- | --- |
| COc1cc2c(cc1OC1CCC1)CCN1C[C@@H](CC(C)(C)C)[C@H](O)C[C@H]21 | = | 15.38 |
| COc1cc2c(cc1OCC(C)(O)C(F)(F)F)CCN1C[C@@H](CC(C)(C)C)[C@H](O)C[C@H]21 (stereo partly shown) | ≤ | 2.59 |
| COc1cc2c(cc1OCC1(F)CC1)CCN1C[C@@H](CC(C)(C)C)[C@@H](O)C[C@H]21 | = | 4.96 |
| CC[C@@H]1C[C@H]1COc1cc2c(cc1OC)[C@H]1C[C@@H](O)[C@H](CC(C)(C)C)CN1CC2 | = | 17.72 |
| COc1cc2c(cc1OCC1(C#N)CC1)CCN1C[C@@H](CC(C)(C)C)[C@H](O)C[C@H]21 | ≤ | 2.59 |
| COc1cc2c(cc1OCCOC1(C#N)CCOCC1)CCN1C[C@@H](CC(C)(C)C)[C@H](O)C[C@H]21 | = | 13.87 |
| COc1cc2c(cc1OCC(F)(F)F)CCN1C[C@@H](CC(C)(C)C)[C@@H](O)C[C@H]21 | ≤ | 2.59 |
| COc1cc2c(cc1OCC1CC1)CCN1C[C@@H](CC(C)(C)C)[C@H](O)C[C@H]21 | = | 11.68 |
| COc1cc2c(cc1OC[C@H](O)C(F)(F)F)CCN1C[C@@H](CC(C)(C)C)[C@H](O)C[C@H]21 | ≤ | 2.59 |
| COc1cc2c(cc1OCC(O)C(F)F)CCN1C[C@@H](CC(C)(C)C)[C@H](O)C[C@H]21 (stereo partly shown) | ≤ | 2.59 |
| COc1cc2c(cc1OC[C@@H](O)C(F)(F)F)CCN1C[C@@H](CC(C)(C)C)[C@H](O)C[C@H]21 | ≤ | 2.59 |
| COc1cc2c(cc1OCC1(C#N)CCC1)CCN1C[C@@H](CC(C)(C)C)[C@H](O)C[C@H]21 | = | 10.98 |
| COc1cc2c(cc1OCC1CC(O)(C(F)(F)F)C1)CCN1C[C@@H](CC(C)(C)C)[C@H](O)C[C@H]21 (stereo partly shown) | = | 4.86 |
| [2H]C([2H])([2H])C([2H])([2H])Oc1cc2c(cc1OC)[C@H]1C[C@@H](O)[C@H](CC(C)(C)C)CN1CC2 | = | 10.88 |
| COc1cc2c(cc1OCCOCC#N)CCN1C[C@@H](CC(C)(C)C)[C@H](O)C[C@H]21 | = | 7.25 |
| COCCOc1cc2c(cc1OC)[C@H]1C[C@@H](O)[C@H](CC(C)(C)C)CN1CC2 | = | 8.32 |
| COc1cc2c(cc1OCCC1(C#N)CC1)CCN1C[C@@H](CC(C)(C)C)[C@H](O)C[C@H]21 | = | 6.53 |
| COc1cc2c(cc1OCc1ccc(C#N)o1)CCN1C[C@@H](CC(C)(C)C)[C@H](O)C[C@H]21 | = | 11.08 |
| COc1cc2c(cc1OCC1(F)CC1)CCN1C[C@@H](CC(C)(C)C)[C@H](O)C[C@H]21 | ≤ | 2.59 |
| COc1cc2c(cc1OCCF)CCN1C[C@@H](CC(C)(C)C)[C@H](O)C[C@H]21 | = | 5.74 |
| COc1cc2c(cc1OCC(C)(F)F)CCN1C[C@@H](CC(C)(C)C)[C@@H](O)C[C@H]21 | ≤ | 2.59 |
| COc1cc2c(cc1OCCCCC(F)(F)F)CCN1C[C@@H](CC(C)(C)C)[C@H](O)C[C@H]21 | = | 6.39 |
| COc1cc2c(cc1OC[C@H](C)O)CCN1C[C@@H](CC(C)(C)C)[C@H](O)C[C@H]21 | ≤ | 2.59 |
| COc1cc2c(cc1OCC1(F)COCCOC1)CCN1C[C@@H](CC(C)(C)C)[C@H](O)C[C@H]21 | = | 8.77 |
| COc1cc2c(cc1OCC1(F)CCC1)CCN1C[C@@H](CC(C)(C)C)[C@H](O)C[C@H]21 | = | 13.55 |
| COc1cc2c(cc1OCc1ncc(C)o1)CCN1C[C@@H](CC(C)(C)C)[C@H](O)C[C@H]21 | = | 8.02 |
| COc1cc2c(cc1O[C@H]1CCOC1)CCN1C[C@@H](CC(C)(C)C)[C@H](O)C[C@H]21 | = | 5.5 |
| COc1cc2c(cc1OC[C@H](C)OC)CCN1C[C@@H](CC(C)(C)C)[C@H](O)C[C@H]21 | = | 11.2 |

###

HLM Predicted Systemic Clearance: recorded values
Experiment: Stability of compounds in human liver microsomes
Assay type: in vitro ADME
Details: scaled from HLM half-life (Obach method), human
Experimental: A test compound (0.5 μM) was incubated with pooled mixed gender liver microsomes from humans (0.5 mg/mL total protein) at 37° C. in the presence of an NADPH-generating system containing 50 mM, pH 7.4 potassium phosphate buffer, 3 mM magnesium chloride, 1 mM EDTA, 1 mM NADP, 5 mM glusose-6-phosphate, and 1 Unit/mL glucose-6-phosphate dehydrogenase. […] Aliquots of the resulting supernatant fractions were analyzed by LC-MS/MS monitoring for depletion of parent compound. […]

| SMILES INPUT | COMPARISON OPERATOR | HLM Predicted Systemic Clearance, mL/min/kg |
| --- | --- | --- |
| COc1cc2c(cc1OCC1CCC1)CCN1C[C@@H](CC(C)(C)C)[C@H](O)C[C@H]21 | = | 17.4 |
| COc1cc2c(cc1OCC1(CC#N)CC1)CCN1C[C@@H](CC(C)(C)C)[C@H](O)C[C@H]21 | = | 13.86 |
| COc1cc2c(cc1OCc1cccc(F)c1)CCN1C[C@@H](CC(C)(C)C)[C@H](O)C[C@H]21 | = | 13.1 |
| [2H]C([2H])([2H])Oc1cc2c(cc1OC)[C@H]1C[C@@H](O)[C@H](CC(C)(C)C)CN1CC2 | ≤ | 2.59 |
| COc1cc2c(cc1OCc1ccccc1)CCN1C[C@@H](CC(C)(C)C)[C@H](O)C[C@H]21 | = | 12.58 |
| COc1cc2c(cc1OCCC(F)(F)F)CCN1C[C@@H](CC(C)(C)C)[C@@H](O)C[C@H]21 | ≤ | 2.59 |
| CC[C@H](O)COc1cc2c(cc1OC)[C@H]1C[C@@H](O)[C@H](CC(C)(C)C)CN1CC2 | = | 4.83 |

###

Here, each record is paired with measured half-life at 0.5 μM data.
Assay: Stability of compounds in human liver microsomes
Format: in vitro ADME
Settings: both sexes, pH 7.4; 0.5 μM compound, 0.5 mg/mL human liver microsomes, 37° C.; maxed at 420 minutes; read-out: HLM Elimination half-life (t1/2, min)
Experimental: A test compound (0.5 μM) was incubated with pooled mixed gender liver microsomes from humans (0.5 mg/mL total protein) at 37° C. in the presence of an NADPH-generating system containing 50 mM, pH 7.4 potassium phosphate buffer, 3 mM magnesium chloride, 1 mM EDTA, 1 mM NADP, 5 mM glusose-6-phosphate, and 1 Unit/mL glucose-6-phosphate dehydrogenase. […] Aliquots of the resulting supernatant fractions were analyzed by LC-MS/MS monitoring for depletion of parent compound. […]

| SMILES INPUT | UNIT NAME | half-life at 0.5 μM |
| --- | --- | --- |
| COc1cc2c(cc1OCC1(C#N)CCC1)CCN1C[C@@H](CC(C)(C)C)[C@H](O)C[C@H]21 | min | 51 |
| CC[C@@H](O)COc1cc2c(cc1OC)[C@H]1C[C@@H](O)[C@H](CC(C)(C)C)CN1CC2 | min | 208 |
| COc1cc2c(cc1OCc1cccc(C#N)c1)CCN1C[C@@H](CC(C)(C)C)[C@H](O)C[C@H]21 | min | 57 |
| COc1cc2c(cc1OCC1CCC1)CCN1C[C@@H](CC(C)(C)C)[C@H](O)C[C@H]21 | min | 9 |

All values here come from patent US11718618B2.
